Each recorded value in this set is attributed to PubChem BioAssay AID588675.

# EXPERIMENTAL_TARGET: Mas-related G-protein coupled receptor member X1 (Homo sapiens)
# ASSAY_EXPLANATION: positive allosteric modulators of MrgX1, primary screen, HEK293 cells, Fluo-4 calcium flux (AID 588675);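 further: compound read alongside a low EC10 to EC30 dose of BAM8-22 agonist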
# STUDY_CONDITIONS: MrgX1-HEK293, Fluo-4 calcium flux, FDSS, at 10 µM
Out of some 310,000 compounds screened, about 1,900 (0.61%) were called active.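 How the source made its calls: active means plate-corrected calcium response at least 3 library SD above typical, normal starting fluorescence, not activating the receptor alone; inactive means the rest.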 What follows is part of a selection rich in actives, with near analogues and random picks from the rest.
Hello, when you answer, please use one of the following outcomes: yes (active), no (inactive)

Test call, this compound: N#C/C(=C1/CCCN1)c1ccccn1
no

Test call, this compound: COc1ccccc1NC(=O)N1CCCC1C(=O)NCc1cccs1 (configuration not stated)
no

Test call, this compound: CCOC(=O)Cn1c(O)c(N=NC(=O)CNC(=O)Cc2ccccc2)c2ccccc21
no

Next:
Test call, this compound: COc1c(C(C)C)oc2cc3oc(=O)ccc3cc12
yes

Test call, this compound: Cc1ccc(N(C(=O)C(F)(F)F)C(C(=O)NC2CCCCC2)c2ccncc2)cc1C (configuration not stated)
no

Test call, this compound: COc1ccc(Cc2nc(-c3ccccn3)no2)cc1OC
yes

Test call, this compound: CCCC1CCC(=NNC(=S)NCCc2ccccc2)CC1 (configuration not stated)
no

Test call, this compound: CC(=O)N1c2ccc(S(=O)(=O)N3CCCC(C(=O)Nc4cccc(Cl)c4)C3)cc2CC1C (configuration not stated)
yes

Test call, this compound: COCc1[nH][nH]c(=O)c1C=Nc1ccc(F)cc1F
no

Test call, this compound: O=C(c1cc(-c2ccc(F)cc2)on1)N1CCN(c2ccc(F)cc2)CC1
no

Test call, this compound: O=C(Nc1ccc(F)cc1)c1cc2c(s1)CCCC2
no

Test call, this compound: CC1CCN(S(=O)(=O)c2ccc3[nH]c(=O)ccc3c2)CC1
no

Test call, this compound: CC(C)C(=O)Nc1ccc2oc(=O)ccc2c1
no

Test call, this compound: Cc1nc(-c2ccccc2)cn2c1nc1ccccc12
no

Test call, this compound: CCOc1ccc2[nH]c(=O)c(CN(CCCO)S(=O)(=O)c3ccc(F)cc3)cc2c1
no

Test call, this compound: Fc1ccccc1/C=C1\CCCC2=C1Nc1ncnn1C2c1ccccc1F (configuration not stated)
yes
